test: Km value was measured; format: ADME
Overview of recorded Km for various compounds
ASSAY_METRIC: Km (µM)

given_smiles=N[C@H]1CCc2ccccc2[C@H]1O assay_metric=Km numeric_result=22
given_smiles=NC[C@@H](O)c1ccccc1 assay_metric=Km numeric_result=70
